Exercise: state measured GI50 for each of the molecules provided.
System: UACC-257
Test: NCI tumour cell line growth inhibition, 48 h
Active and inactive are the calls of the source. No stated cut-off is given here; in the data, active = GI50 up to about 1.1 µM and inactive = higher.

IN: // returns reported GI50 for input CC1C2CC(CC2O)C1(C)C (stereo not given)
OUT: > 100 µM (inactive)

IN: Would you kindly repeat that for Cc1c(/C=N/NC(=S)N2CCCCC2)c(=O)n(-c2ccccc2)n1C ?
OUT: > 100 µM (inactive)

IN: What about CC(=O)OCC1CCC(=C2C(=O)OC(C)(C)OC2=O)N1 (stereo not given) ?
OUT: > 100 µM (inactive)

IN: Okay, and Cc1ccc([N+](=O)[O-])c2c(NCCNC(=O)c3cc(C(=O)NCCNc4ccnc5c(C)ccc([N+](=O)[O-])c45)n(C)n3)ccnc12 ?
OUT: > 81.1 µM (inactive)

IN: Moving on to the next molecule: Cc1nnc(Sc2nc(C#N)c(C#N)nc2Sc2nnc(C)s2)s1
OUT: 10.4 µM (inactive)

====

Test system: EKVX
Assay: NCI tumour cell line growth inhibition, 48 h
Activity calls are given as the source filed them. Cut-off read from the data, not from the text of the source: active = GI50 up to about 1.1 µM and inactive = higher.
METRIC NAME: GI50

IN: Given the entry CCN(CC)CCC(=O)c1ccc(Oc2ccccc2)cc1 , report its measured GI50.
OUT: 20.8 µM (inactive)

IN: Proceed to C=C(C)C1Cc2cc(C(C)=O)ccc2O1 (configuration not stated)
OUT: > 100 µM (inactive)

IN: Note, next up: CCOCNC(=O)N(COCC)COCC
OUT: > 100 µM (inactive)

IN: What do you get for CCOC(=O)CSc1nnc2cc(CN3CCCC3)c(-c3ccc(Cl)cc3)nn12 ?
OUT: > 100 µM (inactive)

IN: // same read-out, input: Cc1c2ccccc2c(C2C3C(=O)N(c4cccc5ccccc45)C(=O)C3ON2Cc2ccc(CC(N)=O)cc2)c2ccccc12 (configuration not stated)
OUT: 14.2 µM (inactive)

IN: Another: COC(=O)c1ccccc1/C=C1/Cc2ccccc2C1=O
OUT: 63.2 µM (inactive)

IN: Field entry: Cc1cc2nc(N)n[n+]([O-])c2cc1C
OUT: > 100 µM (inactive)

====

Test system: ACHN
Experiment: NCI tumour cell line growth inhibition, 48 h
The source made the active and inactive calls. No stated cut-off is given here; in the data, active = GI50 up to about 1.1 µM and inactive = higher.
Provide the recorded GI50 for the entries that follow.

IN: Please provide the recorded GI50 for COc1ccc(C2Cc3cc(OC)c(OC)c(OC)c3C2=O)cc1 (stereo not given) , tested on ACHN.
OUT: > 100 µM (inactive)

IN: What do you have for FC(F)(F)c1ccc(/C=N/C23CC4CC(CC(C4)C2)C3)cc1 ?
OUT: > 100 µM (inactive)

IN: Again, but for CCOC(=O)Cc1c(C)c2cc(C(=O)c3ccccc3)c(O)cc2oc1=O
OUT: 29.3 µM (inactive)

IN: Proceed to COc1ccc(Oc2nc3cc(C(F)(F)F)ccc3nc2C(C)C)cc1
OUT: 26.2 µM (inactive)

IN: Moving on to COC(=O)/C(=N\NC(N)=O)C(C(=O)C(=O)Nc1ccccc1C(=O)OC)c1nc2ccc(C(=O)c3ccccc3)cc2nc1O (stereo not given)
OUT: > 100 µM (inactive)

IN: And for Cc1cc(O)c2c(c1)OC1(C)CCC3C(C)(C)CCCC34COC2C14 (stereo not given) ?
OUT: 12.7 µM (inactive)

IN: Same lookup for COc1cccc2c1C(=O)C1=C(C2=O)C(O)CC(C)(C)O1 (stereo not given) , please.
OUT: 36.1 µM (inactive)

IN: Now give it for CCSC(SCC)=C1C(=O)N(c2ccccc2)N=C1C too.
OUT: 15.7 µM (inactive)

IN: Same lookup for C1CCNCC1.O=C1NC(=S)N/C1=C/c1ccccc1O , please.
OUT: > 100 µM (inactive)

IN: Subsequent entry: Cc1ccc(C(=O)Nc2ccc(S(=O)(=O)O)c3cc(S(=O)(=O)O)cc(S(=O)(=O)O)c23)cc1NC(=O)c1cccc(N)c1
OUT: > 100 µM (inactive)

====

Test system: SF-295
Test: NCI tumour cell line growth inhibition, 48 h
Activity calls are given as the source filed them. Rule as the data show it: active = GI50 up to about 1.1 µM and inactive = higher.
Output constraint: value belongs to y = active, n = inactive

IN: I'd appreciate the recorded outcome for C=CCNC1=C2C[C@@H](C)C[C@@H](OC)[C@H](OC(=O)CN)[C@H](C)/C=C(\C)[C@@H](OC(N)=O)[C@H](OC)/C=C\C=C(/C)C(=O)NC(=CC1=O)C2=O from this test.
OUT: y

IN: Note, next up: O=C1NC(=S)NC(=O)C1C(c1ccc([N+](=O)[O-])cc1)C1C(=O)NC(=S)NC1=O.c1ccncc1
OUT: n

IN: What about this molecule? Cc1cc(N(CCC#N)CCC#N)ccc1C(/N=N\c1ccc([N+](=O)[O-])cc1)=N\NC(=O)c1cc(Cl)ccc1O
OUT: n

IN: What would you report for CC(=O)OC(C#N)CC(C)(C)/[N+]([O-])=[N+](\[O-])C(C)(C)CC(C#N)OC(C)=O (stereo not drawn) ?
OUT: n

IN: COCc1nc(C#N)c(N)o1 ?
OUT: n

IN: Same again, this time with FC(F)(F)c1ccc(/C=N/C23CC4CC(CC(C4)C2)C3)cc1
OUT: n

IN: Param item: Cc1ccccc1C(=O)Oc1ccc(O)cc1
OUT: n

IN: And COc1ccc(C2c3cc4c(cc3OC(NNc3ccccc3)C2C)OCO4)cc1 (stereo not drawn) ?
OUT: n

IN: Also Cn1cnc([N+](=O)[O-])c1Sc1nccn1-c1ccccc1 , if possible.
OUT: n

IN: Now the same for COc1ccc(-c2cc(-c3cc(C)ccc3O)nc(O)n2)cc1
OUT: n

IN: Queued: CCCCNC(=O)OCCN=c1c2ccccc2ccc2ccccc12
OUT: n

IN: // next record Cc1ccc(NC(=O)CC/C(CC(=O)c2ccc(Cl)cc2)=N\NC(=O)C(=O)NN)cc1C
OUT: n

IN: What do we get for CC1(O)CC2C(CC1SCc1ccccc1)C2(C)C (stereo not drawn) ?
OUT: n

IN: What about this molecule? CCCCc1c2c(nc3c1CC/C(=C\c1ccccc1)C3=O)CCCC2
OUT: n

IN: Moving on to Cc1c(O)c(OC2OC(CO)C(O)C(O)C2O)cc2c1CC[C@@H]1C2(C)C(=O)C[C@]2(C)[C@@H]([C@@](C)(O)C(=O)CCC(C)(C)O)[C@H](O)C[C@@]12C (stereo partly drawn)
OUT: n

IN: Further, for CC(CO)C1C[C@H](O)[C@@]2(C)CC(=O)C=C(CO)[C@@H]2C1 (stereo partly drawn) ?
OUT: n

IN: Here is the next molecule: CCC1OC(=O)CC(O)C(C)C(OC2OC(C)CC(N(C)C)C2O)C(CC=O)CC(C)C(=O)/C=C/C2(C)OC2C1C (stereo not drawn)
OUT: n

IN: Now give it for CC(C)CC(NC(=O)c1cccc(O)c1O)C(=O)NCc1cc(CNC(=O)C(CC(C)C)NC(=O)c2cccc(O)c2O)cc(CNC(=O)C(CC(C)C)NC(=O)c2cccc(O)c2O)c1 (stereo not drawn) too.
OUT: n

====

Exercise: for every item that follows, state its recorded GI50.
System: SK-MEL-2
Experiment: NCI tumour cell line growth inhibition, 48 h
Activity calls are given as the source filed them. Rule as the data show it: active = GI50 up to about 1.1 µM and inactive = higher.

IN: Recorded GI50 of Cc1ccc2nc3[nH]nc(N)c3nc2c1 , please.
OUT: > 100 µM (inactive)

IN: What do we get for COc1ccc(C(c2c[nH]c3ccc(Br)cc23)c2c[nH]c3ccc(Br)cc23)cc1 ?
OUT: 0.366 µM (active)

IN: Item: CC(C)C(=O)/C=C/c1c(Cl)cccc1Cl
OUT: 2.25 µM (inactive)

IN: Also CS(=O)(=O)Nc1ccc(Nc2c3ccccc3nc3ccccc23)cc1 , if possible.
OUT: 5.16 µM (inactive)

IN: Next up: COc1ccc2cc(C(=O)O)ccc2c1OC
OUT: > 100 µM (inactive)

IN: Would you kindly repeat that for O=C(NC1CCN(Cc2ccccc2)CC1)c1cccc(I)c1 ?
OUT: 18.7 µM (inactive)

IN: How about this compound: C[C@]12C=CC(=O)C=C1CC[C@H]1[C@@H]3C[C@@H](O)[C@](O)(C(=O)CO)[C@@]3(C)C[C@H](O)[C@@]12F [TRIAMCINOLONE]
OUT: > 100 µM (inactive)

IN: Param item: O=C(CC(Cc1ccccc1)c1ccc(Oc2ccccc2)cc1)Nc1cccc(Cl)c1 (stereo unspecified)
OUT: 3.56 µM (inactive)

IN: Same read-out for Cc1nnc(Sc2nc(C#N)c(C#N)nc2Sc2nnc(C)s2)s1 ?
OUT: 18.4 µM (inactive)

IN: Would you mind doing CC(C)[C@](O)(C(=O)OCC1=CCN2CC[C@@H](O)[C@@H]12)[C@H](C)O as well?
OUT: > 375 µM (inactive)

IN: Item: Nc1nc(SCc2ccccc2Cl)cc(C(=O)O)n1
OUT: 58.9 µM (inactive)

IN: // query: COC(=O)CCC1=C(CC(=O)OC)C(C)(OC)N/C1=N/C(=O)OCc1ccccc1 (stereo unspecified)
OUT: > 100 µM (inactive)

IN: And what about the compound COc1cc(/C=C2\N=C(c3ccccc3)N(c3ccc4c(c3)Sc3cc(N5C(=O)/C(=C/c6cc(OC)c(OC)c(OC)c6)N=C5c5ccccc5)ccc3N4)C2=O)cc(OC)c1OC ?
OUT: 18.5 µM (inactive)

IN: Also CCCCS/C(=C(/C#N)C(N)=O)c1cc2c([nH]1)CCCC2 ?
OUT: 12.1 µM (inactive)

IN: Next up: CC(=O)C1Cn2c(=O)c3cc4ccccc4cc3c(=O)n2C=C1C (stereo unspecified)
OUT: > 100 µM (inactive)

IN: Item: CC(C)CC(NC(=O)c1cccc(O)c1O)C(=O)NCc1cc(CNC(=O)C(CC(C)C)NC(=O)c2cccc(O)c2O)cc(CNC(=O)C(CC(C)C)NC(=O)c2cccc(O)c2O)c1 (stereo unspecified)
OUT: 7.05 µM (inactive)
